Reported kon values follow for various binders
Molecular target: T1, Human CD122 His tagged (human, UniProt P14784 27-240)
T1 construct: also called hCD122; monomeric antigen; not shown: His tag
T1 sequence: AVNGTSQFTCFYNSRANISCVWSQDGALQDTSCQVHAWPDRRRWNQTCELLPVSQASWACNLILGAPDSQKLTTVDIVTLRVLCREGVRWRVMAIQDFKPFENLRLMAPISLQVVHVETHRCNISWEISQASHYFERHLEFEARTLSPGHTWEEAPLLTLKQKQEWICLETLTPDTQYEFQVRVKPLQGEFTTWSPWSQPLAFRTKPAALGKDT
Assay: Biacore, Fab affinity and kinetics on hCD122
parameterMeasured: kon

{"binder": "FAB17 (Fab, V domains shown, 06F11-V optimization variant; also called Fab version of MAB17) VH: EVQLLESGGGLVQPGGSLRLSCAASGFSVTSYGVHWIRQAPGKGLEWLGVIWSGGSTDYNAAFISRLTISKDNSKNTVYFQMNSLRAEDTAVYYCARAGDYNYDGFAYWGQGTLVTVSS VL: DIQMTQSPSSLSASVGDRVTITCQASQSVSFLYWYQQRPGKAPRLLIYDTSNLASGVPSRFSGSGSGTSYTFTISSLQPEDIATYYCQQWSTYPLTFGQGTKVEIK", "dataValue": "430000 M⁻¹ s⁻¹"}
{"binder": "VillFab-1 (Fab, V domains shown, also called Villmab-1 in human Fab format) VH: EVQLLESGGGLVQPGGSLRLSCAASGFSVTSYGVHWIRQAPGKGLEWLGVIWSGGSTDYNAAFISRLTISKDNSKNTVYFQMNSLQAEDTAIYYCARAGDYNYDGFAYWGQGTLVTVSS VL: DIVLTQSPSSLSASVGDRVTITCSGSSSVSFMYWYQQRPGKAPRLLIYDTSNLASGVPSRFSGSGSGTSYTFTISSLQPEDIATYYCQQWSTYPLTFGQGTKVEVK", "dataValue": "270000 M⁻¹ s⁻¹"}
{"binder": "FAB18 (Fab, V domains shown, 06F11-V optimization variant; also called Fab version of MAB18) VH: EVQLLESGGGLVQPGGSLRLSCAASGFSVTSYGVHWIRQAPGKGLEWLGVIWSGGSTDYNAAFISRLTISKDNSKNTVYFQMNSLRAEDTAVYYCARAGDYNYDGFAYWGQGTLVTVSS VL: DIQMTQSPSSLSASVGDRVTITCQASSSVSFMYWYQQRPGKAPRLLIYDTSNLASGVPSRFSGSGSGTSYTFTISSLQPEDIATYYCQQWSTYPLTFGQGTKVEIK", "dataValue": "340000 M⁻¹ s⁻¹"}
{"binder": "FAB06 (Fab, V domains shown, 06F11-V optimization variant; also called Fab version of MAB06) VH: EVQLLESGGGLVQPGGSLRLSCAASGFTVTSYAVHWVRQAPGKGLEWLGVIWSGGSTDYNAAFISRLTISKDNSKNTVYFQMNSLRAEDTAVYYCARAGDANYDGFAYWGQGTLVTVSS VL: DIQMTQSPSSLSASVGDRVTITCQASSSVSFMYWYQQRPGKAPRLLIYDTSNLASGVPSRFSGSGSGTSYTFTISSLQPEDIATYYCQQWSTYPLTFGQGTKVEIK", "dataValue": "540000 M⁻¹ s⁻¹"}
{"binder": "FAB05 (Fab, V domains shown, 06F11-V optimization variant; also called Fab version of MAB05) VH: EVQLLESGGGLVQPGGSLRLSCAASGFTVTSYAVHWVRQAPGKGLEWLGVIWSGGSTDYNAAFISRLTISKDNSKNTVYFQMNSLRAEDTAVYYCARAGDANYDGFAYWGQGTLVTVSS VL: DIQMTQSPSSLSASVGDRVTITCQASQSVSFLYWYQQRPGKAPRLLIYDTSNLASGVPSRFSGSGSGTSYTFTISSLQPEDIATYYCQQWSTYPLTFGQGTKVEIK", "dataValue": "570000 M⁻¹ s⁻¹"}
{"binder": "FAB14 (Fab, V domains shown, 06F11-V optimization variant; also called Fab version of MAB14) VH: EVQLLESGGGLVQPGGSLRLSCAASGFSVTSYGVHWIRQAPGKGLEWLGVIWSGGSTDYNAAFISRLTISKDNSKNTVYFQMNSLRAEDTAVYYCARAGDANYDGFAYWGQGTLVTVSS VL: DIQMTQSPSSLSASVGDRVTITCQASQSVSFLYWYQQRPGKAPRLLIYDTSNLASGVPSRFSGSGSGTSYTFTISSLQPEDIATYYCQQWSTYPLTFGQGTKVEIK", "dataValue": "850000 M⁻¹ s⁻¹"}
{"binder": "FAB15 (Fab, V domains shown, 06F11-V optimization variant; also called Fab version of MAB15) VH: EVQLLESGGGLVQPGGSLRLSCAASGFSVTSYGVHWIRQAPGKGLEWLGVIWSGGSTDYNAAFISRLTISKDNSKNTVYFQMNSLRAEDTAVYYCARAGDANYDGFAYWGQGTLVTVSS VL: DIQMTQSPSSLSASVGDRVTITCQASSSVSFMYWYQQRPGKAPRLLIYDTSNLASGVPSRFSGSGSGTSYTFTISSLQPEDIATYYCQQWSTYPLTFGQGTKVEIK", "dataValue": "610000 M⁻¹ s⁻¹"}
